systemName: Human IBAT (Homo sapiens)
Construct: expressed in transfected cells; cultured under Puromycin selection
Sequence (Q12908 whole entry): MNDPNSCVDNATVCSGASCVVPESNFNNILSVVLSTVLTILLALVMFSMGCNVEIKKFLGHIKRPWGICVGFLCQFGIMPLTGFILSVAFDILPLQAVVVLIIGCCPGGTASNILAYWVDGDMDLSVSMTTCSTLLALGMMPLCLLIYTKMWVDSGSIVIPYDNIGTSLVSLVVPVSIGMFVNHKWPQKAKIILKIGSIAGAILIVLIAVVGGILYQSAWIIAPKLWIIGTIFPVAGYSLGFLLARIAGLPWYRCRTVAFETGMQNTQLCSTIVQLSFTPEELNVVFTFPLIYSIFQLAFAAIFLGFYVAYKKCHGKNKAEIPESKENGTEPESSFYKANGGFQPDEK
assayText: IBAT (h/m) assay, human IBAT-overexpressing cells, 3H-taurocholic acid uptake
Format: cell-based
assaySetup: read-out: hIBAT IC50
pIC50: −log10 of the molar value.
quantityKind: pIC50

Observe how each entry below is paired with its result.
molecule	pIC50
CCCCC1(CC)CN(c2ccc(F)cc2)c2cc(SC)c(OCC(OCC)C(=O)O)cc2S(=O)(=O)C1 (stereo not shown) [Example 11]	8.00
CCCCC1(CC)CN(c2ccc(F)cc2)c2cc(SC)c(OCC(C)(C)C(=O)O)cc2S(=O)(=O)C1 (single isomer, unassigned) [5, enantiomer 2]	6.11
CCC1(CC)CN(c2ccccc2)c2cc(SC)c(OCC(C)(F)C(=O)O)cc2S(=O)(=O)C1 (stereo not shown) [Example 6]	6.47
CCCCC1(CC)CN(c2ccc(F)cc2)c2cc(SC)c(OCC3(C(=O)O)CC3)cc2S(=O)(=O)C1 (single isomer, unassigned) [3, enantiomer 2]	6.59

1: CCCCC1(CCCC)CN(c2ccc(F)cc2)c2cc(SC)c(OCC(OC)C(=O)O)cc2S(=O)(=O)C1 (stereo not shown) [Example 9]
2: CCC1(CC)CN(c2ccc(F)cc2)c2cc(SC)c(OCC(C)(C)C(=O)O)cc2S(=O)(=O)C1 [Example 13]
3: CCCCC1(C)CN(c2ccc(F)cc2)c2cc(SC)c(OCC(O)C(=O)O)cc2S(=O)(=O)C1 (single isomer, unassigned) [1, diastereomer 3]
Req: Put the items in order so that reported pIC50 rises from first to last. Output spec: labels arranged per the requested ranking.
Resp: 2, 3, 1
(2: 6.59, 3: 7.21, 1: 8.00)
